Tested on: HepG2
Assay: Cytotoxicity against human HepG2 cells assessed as growth inhibition after 48 hrs by MTT assay
Assay type: functional, cell-based
Settings: HepG2, 48 h
Measure: pIC50
Numbers only, as −log10 of the molar value.

# Smiles code, pIC50
rows = [
    ("C=C1C2=CC(=O)O[C@]2(OC)C[C@H]2[C@H]1[C@@H](O)C[C@@]1(O)C(C)(C)CC[C@H](OC(C)=O)[C@]21C", 4.46),
]

Turning now to a further compound:
In: Look up pIC50 for this compound: `C=C1C2=CC(=O)O[C@]2(OC)C[C@H]2[C@H]1[C@@H](O)[C@H](OC(C)=O)[C@@]1(O)C(C)(C)CC[C@H](OC(C)=O)[C@]21C`
Out: 4.41
